Source listed as patent US20150086555A1.

# TARGET_OR_SYSTEM: recombinant soluble homotrimeric HA of A/Netherlands/219/03 (H7N7) (Influenza A virus A/Netherlands/219/03(H7N7))
# PROTOCOL: trimeric HA microarray, transfection supernatant set 2
# SETUP_CONDITIONS: remark: other sources report otherwise
ASSAY_METRIC: Trimeric HA Binding: RLU (RLU)
Numbers only, in RLU.

Below: 3 binders and their reported Trimeric HA Binding: RLU.
>  <BINDER>
TCN-523 (5248_A17) (antibody, V domains shown) VH: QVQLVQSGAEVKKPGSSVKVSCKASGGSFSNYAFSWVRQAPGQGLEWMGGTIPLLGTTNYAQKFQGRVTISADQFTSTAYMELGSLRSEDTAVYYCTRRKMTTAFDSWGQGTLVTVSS VL: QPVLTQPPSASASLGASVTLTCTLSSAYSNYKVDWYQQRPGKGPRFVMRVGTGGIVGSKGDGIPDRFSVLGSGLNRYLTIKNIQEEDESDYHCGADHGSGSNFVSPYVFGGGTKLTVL

>  <RECORDED_NUMBER>
407

$$$$
>  <BINDER>
TCN-563 (5237_B21) (antibody, V domains shown) VH: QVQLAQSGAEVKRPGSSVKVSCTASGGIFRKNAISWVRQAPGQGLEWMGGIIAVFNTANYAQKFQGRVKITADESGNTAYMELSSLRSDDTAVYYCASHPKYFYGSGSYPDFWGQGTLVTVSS VL: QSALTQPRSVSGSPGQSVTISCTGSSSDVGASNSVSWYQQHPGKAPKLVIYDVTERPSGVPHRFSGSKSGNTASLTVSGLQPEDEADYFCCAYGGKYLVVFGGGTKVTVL

>  <RECORDED_NUMBER>
5420

$$$$
>  <BINDER>
TCN-527 (5086_C06) (antibody, V domains shown) VH: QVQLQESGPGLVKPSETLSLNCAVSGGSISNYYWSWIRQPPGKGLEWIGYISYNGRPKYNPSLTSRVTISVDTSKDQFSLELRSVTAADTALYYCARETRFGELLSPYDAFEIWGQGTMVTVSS VL: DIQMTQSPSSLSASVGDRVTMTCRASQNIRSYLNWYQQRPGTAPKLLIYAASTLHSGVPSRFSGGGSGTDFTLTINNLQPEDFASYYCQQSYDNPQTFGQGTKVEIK

>  <RECORDED_NUMBER>
49100

$$$$

Find the recorded Trimeric HA Binding: RLU belonging to TCN-528 (5087_P17) (antibody, V domains shown) VH: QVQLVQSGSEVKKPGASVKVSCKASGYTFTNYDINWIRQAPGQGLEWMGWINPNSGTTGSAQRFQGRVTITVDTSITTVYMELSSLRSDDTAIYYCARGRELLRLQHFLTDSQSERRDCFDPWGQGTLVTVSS VL: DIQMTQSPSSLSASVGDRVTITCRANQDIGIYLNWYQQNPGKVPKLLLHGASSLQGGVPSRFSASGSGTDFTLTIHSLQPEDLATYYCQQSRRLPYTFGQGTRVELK and report it.
47200
